molecular target: D5 dopaminergic receptor (Homo sapiens); experiment: PDSP radioligand binding, D5; conditions: read-out: % inhibition at 10 µM; single concentration 10 µM
Sequence (P21918 whole entry): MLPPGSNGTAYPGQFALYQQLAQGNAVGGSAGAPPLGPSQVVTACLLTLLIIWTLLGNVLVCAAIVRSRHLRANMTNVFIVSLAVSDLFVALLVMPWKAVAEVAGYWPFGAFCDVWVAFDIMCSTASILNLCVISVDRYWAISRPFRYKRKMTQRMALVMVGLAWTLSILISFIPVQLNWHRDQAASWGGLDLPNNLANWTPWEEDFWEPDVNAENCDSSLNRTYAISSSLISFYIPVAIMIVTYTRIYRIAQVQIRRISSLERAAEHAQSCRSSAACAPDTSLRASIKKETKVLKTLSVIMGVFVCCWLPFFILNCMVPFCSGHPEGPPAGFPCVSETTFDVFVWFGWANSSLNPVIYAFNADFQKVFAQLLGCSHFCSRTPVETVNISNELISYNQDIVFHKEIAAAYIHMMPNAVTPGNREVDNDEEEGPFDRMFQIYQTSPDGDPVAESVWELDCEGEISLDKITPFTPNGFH
# binarize inhibition at 10 µM: threshold 7% inclusive, high side condition met, low side condition not met

Entry Clc1cccc(CNc2nc(Cl)nc3[nH]cnc23)c1 [Compound 9] : is its inhibition at 10 µM no less than 7%? condition not met

Does the reported inhibition at 10 µM for O[C@@H]1[C@H](O)[C@@H]2C[C@@H]2[C@H]1n1cnc2c(NC(C3CC3)C3CC3)nc(Cl)nc21 [Compound 10] fall at or above the 7% mark? condition not met

Would you say CNC(=O)[C@@]12C[C@@H]1[C@@H](n1cnc3c(NC)nc(C#Cc4ccc(F)c(F)c4)nc31)[C@H](O)[C@@H]2O [Compound 5] shows inhibition at 10 µM at minimum 7%? condition not met

Could you please find out whether O[C@@H]1[C@H](O)[C@@H]2C[C@@H]2[C@H]1n1cnc2c(NCc3cccc(Cl)c3)nc(C#Cc3ccc(F)c(F)c3)nc21 [Compound 6] has inhibition at 10 µM that meets 7% or exceeds it? condition not met

Can CNC(=O)[C@@]12C[C@@H]1[C@@H](n1cnc3c(NCc4cccc(Cl)c4)nc(Cl)nc31)[C@H](O)[C@@H]2O [Compound 4] be said to have inhibition at 10 µM at or above 7%? condition not met

I'd appreciate it if you could say whether Fc1ccc(C#Cc2nc(NCc3cccc(Cl)c3)c3nc[nH]c3n2)cc1F [Compound 8] has inhibition at 10 µM at least equal to 7%. condition met

Is inhibition at 10 µM for CNC(=O)[C@@]12C[C@@H]1[C@@H](n1cnc3c(NCc4cccc(Cl)c4)nc(C#Cc4ccccc4Cl)nc31)[C@H](O)[C@@H]2O [Compound 3] at or above 7%? condition met

Assess whether reported inhibition at 10 µM for CNC(=O)[C@@]12C[C@@H]1[C@@H](n1cnc3c(NCc4cccc(Cl)c4)nc(C#Cc4ccc(F)cc4)nc31)[C@H](O)[C@@H]2O [Compound 2] sits at 7% or higher. condition met
